The reported numbers originate from the supplement of paper PMC9170038.

# Tested on: MS2 coat protein
# Procedure text: apparent KD of MS2 coat protein; designed switch direction (-1 OFF switch, 1 ON switch): -1; higher = weaker reporter binding
# Assay setup: Eterna round: R95; input ligand: microRNA oligo, concentration not stated
Here the recorded apparent KD of MS2 coat protein is given for each entry.
Could you give me the number in nM? Just the number is fine.

## Input Given the entry GGGAUGUCAGGAUAUCCGAAAGUCUACCAAUACGGCAGACAGGAGAAGGGACAUGAGGAUCACCCAUGUAAAGA [Quatma] (puzzle: Exclusion 4) , report its measured apparent KD of MS2 coat protein.
## Output 36.7

## Input Given the entry GAGGUGUUAGGAUAUCGGAGAUGGAGACCAACGGGAUGAGCCGAGAAGGAACAUGAGGAUCACCCAUGUAGGUG [JR_Exclu4_Sub032] (puzzle: Exclusion 4) , report its measured apparent KD of MS2 coat protein.
## Output 755

## Input Given the entry AGUAGAUCUACGCUUGCGUGGAUCUGCGAGGCAGGUGUAACAUGAGGAUCACCCAUGUCCUCAUUUGUUCGUCUUAU [JL turnoff v2 99.19] (puzzle: Sensor v3, turn-off variant 2) , report its measured apparent KD of MS2 coat protein.
## Output 377

## Input Given the entry GAUUAUGCGAGCUUUAGGGACAUGAGGAUCACCCAUGUUCGUCUUAUUAGUCUAGGUGCACUGACAUACCUAAAUCU [JMF 90] (puzzle: Sensor v3, turn-off variant 1) , report its measured apparent KD of MS2 coat protein.
## Output 26.1

## Input Given the entry GGUGCGUUUGUGAGGAUAUGCUGGUCCUUGGUUCGGCAGAAGGCACAUGAGGAUCACCCAUGUGGUGUCGCACC [salish99_Bmod_Ex4_049] (puzzle: Brourd's mod of Exclusion 4) , report its measured apparent KD of MS2 coat protein.
## Output 65.9

Now take the following sequence into account.
## Input Given the entry GAGUGACAUGAGGAUCACCCAUGUGAGGAUAUCGGACGGACCAAAUUAACAACAAACGCGAGAAGGCACAUCGG [Exclusion 1 V19] (puzzle: Exclusion 1) , report its measured apparent KD of MS2 coat protein.
## Output 74.9

---

# System: K4 kissing-loop RNA reporter;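 also: bound reporter read as fluorescence of individual clusters on recovered sequencing chips by microscopy, with normalized cluster intensities fitted with a binding model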
# Procedure text: apparent KD of K4 kissing-loop reporter; higher = weaker reporter binding
# Assay setup: Eterna round: R107; input ligand: arginine 13.2 mM
Parameter: apparent KD of K4 kissing-loop reporter
Your reply should be a number followed by the unit it is expressed in.

## Input Given the entry CUCGUGGGUUUGAGAGGGCUUGUGGGAAGUGAGGAUAUUUAGGGAGGGAGAAGGUACUAUAGAAUAUAGUGAUGUUAUAUAUGGG [SSFMNA.U] , report its measured apparent KD of K4 kissing-loop reporter.
## Output 138 nM

## Input Given the entry GCAUCCAUGGCAGGAUAUAGGUUCGUGGAGUGAUGUUCCAUAGCCCGAGUGAUGUUCGUUAUCCGCCUAGAAGGGCCGUGGAUGC [whbob_Ex_FMNB__2th214] , report its measured apparent KD of K4 kissing-loop reporter.
## Output 184 nM

## Input Given the entry UUCGUAGUAGGAAACUAUUACGAAAAGGAAGGAGCGGCGAAGAAGCCAGGUAGGUCGCCUAUUGACAGUGAUGUUGUUAUGUAGA [#9] , report its measured apparent KD of K4 kissing-loop reporter.
## Output 341 nM

## Input Given the entry AAACUACGUGACGAUACCAGCUUACUCGGCAAGCCAGUGAUGUUGGUGAAAAGGAGUCAAAGCCCUUGGCAGCGUCGAAGGUUUG [Usandiat] , report its measured apparent KD of K4 kissing-loop reporter.
## Output 215 nM

## Input Given the entry UUUAUAUAGUCGGCCGCCACUGGAUUAAUAUUUGUAUAAUCUAGAUCAAAGUGAUGUUUUGAGUCCAGGACCGGGACAUUUGUUA [JR_ExcTryptoB_Sub006] , report its measured apparent KD of K4 kissing-loop reporter.
## Output 391 nM

Now take the following sequence into account.
## Input Given the entry AUGCUUUUAAUAACACUAUAUACAGCUGAAGGAGCGACAAUAAAGUCAGGUAGGUCGCAGAAUAGAUGAGUGAUGUUCAUUUUUA [#05 K4 Arginine A Exclusion] , report its measured apparent KD of K4 kissing-loop reporter.
## Output 178 nM
